- Tested on: PfHDP1 homeodomain (GST-tagged)
- Assay Protocol: gcPBM binding intensity (ln(normalized median fluorescence intensity)); higher = stronger DNA binding
Whole data set: some 25,000 sequences, median “ln(normalized median fluorescence intensity)” near 6.7, cut for the highest 2% near 10. The entries come from a sample that favours the highest values as a whole.
The sequences listed here are annotated with their gcPBM binding intensity (ln).
Format: numeric value only, no unit, no commentary.

# annotated cases, reported gcPBM binding intensity (ln) shown
>  <Polymer Sequence>
TTTCATTTGTCGTTATGTACTTATTAAATATTATTA [XGTACX_site7709]

>  <System Under Test>
PfHDP1 homeodomain (GST-tagged)

>  <gcPBM binding intensity (ln)>
6.92

$$$$
>  <Polymer Sequence>
AGAATTAAAAACAGTTGTACAAAAAGTTGTATAAAT [XGTACX_site411]

>  <System Under Test>
PfHDP1 homeodomain (GST-tagged)

>  <gcPBM binding intensity (ln)>
7.41

$$$$
>  <Polymer Sequence>
AATAAAATGGAATACGGTACACATAATCCTAAAATG [XGTACX_site926]

>  <System Under Test>
PfHDP1 homeodomain (GST-tagged)

>  <gcPBM binding intensity (ln)>
6.4

$$$$
>  <Polymer Sequence>
ATATTATGTGATTGTGCACACTGGAGATTTTTTTTA [CACACA_site1453]

>  <System Under Test>
PfHDP1 homeodomain (GST-tagged)

>  <gcPBM binding intensity (ln)>
11.2

$$$$

**Q:** Provide one value: measured gcPBM binding intensity (ln) of TATATTTAGAATACAATCTTAAAGTTGAAATAAAAT [CACACA_negctrl_site1292]
**A:** 6.03

Reference for the values: the supplement of paper PMC11417369
